# experiment-summary: HFrEF study Part 1 (SAD Cohorts 1 and 2): plasma pharmacokinetics
# Type: in vivo, human
# run-conditions: human, plasma, oral, 175 mg, SAD Cohort 1, 175 mg (n = 8)
quantity-name: Tmax (h)
One number for each entry, in h.

**Q:** Bench note: what Tmax did Cn1cc(S(=O)(=O)[C@@](C)(F)C2CCN(C(=O)Nc3ccon3)CC2)c(C(F)F)n1 show?
**A:** 4.93

---

# experiment-summary: Single ascending oral dose study in healthy volunteers: plasma pharmacokinetics
# Assay type: in vivo, human
# run-conditions: human, plasma, oral, 50 mg, 48 Hours Postdose; 50 mg; read-out: Plasma concentration, Median
quantity-name: concentration at 48 h

**Q:** Query (molecule): Cn1cc(S(=O)(=O)[C@@](C)(F)C2CCN(C(=O)Nc3ccon3)CC2)c(C(F)F)n1 [Compound I] ; field requested: concentration at 48 h
**A:** 57.4 ng/mL

---

# experiment-summary: Single ascending oral dose study in healthy volunteers: plasma pharmacokinetics
# Assay type: in vivo, human
# run-conditions: human, plasma, oral, 175 mg, 72 Hours Postdose; 175 mg; read-out: Plasma concentration, Mean
quantity-name: concentration at 72 h (ng/mL)
Numbers only, in ng/mL.

**Q:** I have this compound here, Cn1cc(S(=O)(=O)[C@@](C)(F)C2CCN(C(=O)Nc3ccon3)CC2)c(C(F)F)n1 , and I need its recorded concentration at 72 h.
**A:** 71.3

---

# experiment-summary: Single ascending oral dose study in healthy volunteers: plasma pharmacokinetics
# Format: in vivo, human
# run-conditions: human, plasma, oral, 3 mg; read-out: AUC0-∞, Median
# Text: This example describes the first-in-human study of Compound I. Based on its mechanism of action, Compound I may offer a targeted therapy for patients with DCM caused by genetic or nongenetic mechanisms. […] The concentrations of Compound I in human plasma and urine were quantitated by high performance liquid chromatography with tandem mass spectrometric detection (LC MS/MS) (Biological sample analysis study report Alturas AD17-726). […]
quantity-name: AUC(0-inf) (ng·h/mL)
Answers are plain numbers, in ng·h/mL.

**Q:** For Cn1cc(S(=O)(=O)[C@@](C)(F)C2CCN(C(=O)Nc3ccon3)CC2)c(C(F)F)n1 , what is its reported AUC(0-inf)?
**A:** 730

---

# experiment-summary: HFrEF study Part 1 (SAD Cohorts 1 and 2): plasma pharmacokinetics
# Assay type: in vivo, human
# run-conditions: human, plasma, oral; SAD Cohort 1, 350 mg (n = 8); read-out: t½ (converted)
quantity-name: half-life (h)
One number for each entry, in h.

**Q:** State the recorded half-life for this entry: Cn1cc(S(=O)(=O)[C@@](C)(F)C2CCN(C(=O)Nc3ccon3)CC2)c(C(F)F)n1
**A:** 21

---

# experiment-summary: Single ascending oral dose study in healthy volunteers: plasma pharmacokinetics
# Format: in vivo, human
# run-conditions: human, plasma, oral, 525 mg, 6 Hours Postdose; 525 mg; read-out: Plasma concentration, Mean
quantity-name: concentration at 6 h (ng/mL)
Answers are plain numbers, in ng/mL.

**Q:** I have this compound here, Cn1cc(S(=O)(=O)[C@@](C)(F)C2CCN(C(=O)Nc3ccon3)CC2)c(C(F)F)n1 , and I need its recorded concentration at 6 h.
**A:** 2220

---

# experiment-summary: Single ascending oral dose study in healthy volunteers: plasma pharmacokinetics
# Type: in vivo, human
# run-conditions: human, plasma, oral, 350 mg + 525 mg; read-out: AUC0-∞, Geometric Mean
quantity-name: AUC(0-inf)
Quick note: number first, unit second.

**Q:** Look up AUC(0-inf): Cn1cc(S(=O)(=O)[C@@](C)(F)C2CCN(C(=O)Nc3ccon3)CC2)c(C(F)F)n1 [Compound I]
**A:** 71000 ng·h/mL
